# target_or_system: Serine protease 1 (Homo sapiens, UniProt P07477)
# Sequence (P07477 whole entry): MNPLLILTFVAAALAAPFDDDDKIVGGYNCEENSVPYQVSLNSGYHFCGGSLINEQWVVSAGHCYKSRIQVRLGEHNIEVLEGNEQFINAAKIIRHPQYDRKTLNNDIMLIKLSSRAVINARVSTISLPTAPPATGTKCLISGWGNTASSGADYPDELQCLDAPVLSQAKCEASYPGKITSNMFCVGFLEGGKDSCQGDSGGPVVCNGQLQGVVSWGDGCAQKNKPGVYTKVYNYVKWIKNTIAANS
Here, each record is paired with measured pKi data.
Just the number, please; pKi means minus log10 of the concentration in mol/L.

Example compounds with recorded pKi:
> print(dat)
                                        mol  reported.metric  result
1  COc1ccc2sc(S(=O)(=O)N[C@H]3CCN(Cc4cc(C(=N)N)ccc4N)C3=O)cc2n1              pKi    6.07
2  N=C(N)c1ccc(N)c(CN2CC[C@H](NS(=O)(=O)c3cc4nc(Cl)ccc4s3)C2=O)c1              pKi    5.74
3  COc1ccc2ccc(S(=O)(=O)N[C@H]3CCN(Cc4cc(C(=N)N)ccc4O)C3=O)cc2c1              pKi    6.52

What measured pKi goes with N=C(N)c1cccc(CN2CC[C@H](NS(=O)(=O)c3cc4cccnc4s3)C2=O)c1 ? 5.54

* * *

# target_or_system: Coagulation factor X (Homo sapiens, UniProt P00742)
# Sequence (P00742 41-179 limits assumed): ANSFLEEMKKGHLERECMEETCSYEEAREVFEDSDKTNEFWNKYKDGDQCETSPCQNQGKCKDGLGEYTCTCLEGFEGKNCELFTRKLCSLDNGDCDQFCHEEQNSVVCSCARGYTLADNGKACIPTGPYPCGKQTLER
# Sequence (P00742 235-488 limits assumed): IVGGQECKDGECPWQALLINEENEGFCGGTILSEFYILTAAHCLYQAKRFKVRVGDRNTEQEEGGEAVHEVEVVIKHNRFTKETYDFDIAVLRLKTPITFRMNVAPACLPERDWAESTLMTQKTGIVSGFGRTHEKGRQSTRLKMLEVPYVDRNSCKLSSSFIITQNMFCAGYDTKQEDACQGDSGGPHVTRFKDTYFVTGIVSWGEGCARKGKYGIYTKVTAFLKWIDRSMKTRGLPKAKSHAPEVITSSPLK
# assay_name: Binding affinity against serine protease factor Xa (fXa)
Mark each entry true (1) if its Ki sits below 0.03 µM, and false (0) for all others.

Field: example entries. Status: answers known.
> print(dat)
                                        mol                          target.or.system  assigned.class
1  N=C(N)c1cccc(CN2CC[C@H](NS(=O)(=O)c3cc4nc(Cl)ccc4s3)C2=O)c1  Coagulation factor X (Homo sapiens, UniProt P00742)       false (0)
2  N=C(N)c1ccc(O)c(CN2CC[C@H](NS(=O)(=O)c3cc4nc(Cl)ccc4s3)C2=O)c1  Coagulation factor X (Homo sapiens, UniProt P00742)        true (1)
3  N=C(N)c1ccc(O)c(CN2CC[C@H](NS(=O)(=O)c3cc4cnccc4s3)C2=O)c1  Coagulation factor X (Homo sapiens, UniProt P00742)        true (1)
4  N=C(N)c1cccc(CN2CC[C@H](NS(=O)(=O)c3cc4ncccc4s3)C2=O)c1  Coagulation factor X (Homo sapiens, UniProt P00742)        true (1)

I wonder whether COc1ccc2sc(S(=O)(=O)N[C@H]3CCN(Cc4cc(C(=N)N)ccc4N)C3=O)cc2n1 has Ki below 0.03 µM. Can you tell? true (1)

Try this compound too: N=C(N)c1cccc(CN2CC[C@H](NS(=O)(=O)c3cc4cccnc4s3)C2=O)c1 false (0)

What do you have for CCOc1ccc2cc(S(=O)(=O)N[C@H]3CCN(Cc4cccc(C(=N)N)c4)C3=O)ccc2n1 ? false (0)

Similarly, N=C(N)c1cccc(CN2CC[C@H](NS(=O)(=O)c3ccc4nc(Cl)ccc4c3)C2=O)c1 ? false (0)

And for N=C(N)c1ccc(N)c(CN2CC[C@H](NS(=O)(=O)c3cc4nc(Cl)ccc4s3)C2=O)c1 ? true (1)

* * *

# target_or_system: Vitamin K-dependent protein C (Homo sapiens, UniProt P04070)
# Sequence (P04070 43-197 limits assumed): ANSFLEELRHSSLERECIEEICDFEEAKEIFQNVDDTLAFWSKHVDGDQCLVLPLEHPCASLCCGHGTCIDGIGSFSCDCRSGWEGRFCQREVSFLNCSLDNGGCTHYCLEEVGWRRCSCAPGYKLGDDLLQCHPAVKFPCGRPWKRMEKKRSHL
# Sequence (P04070 212-461 limits assumed): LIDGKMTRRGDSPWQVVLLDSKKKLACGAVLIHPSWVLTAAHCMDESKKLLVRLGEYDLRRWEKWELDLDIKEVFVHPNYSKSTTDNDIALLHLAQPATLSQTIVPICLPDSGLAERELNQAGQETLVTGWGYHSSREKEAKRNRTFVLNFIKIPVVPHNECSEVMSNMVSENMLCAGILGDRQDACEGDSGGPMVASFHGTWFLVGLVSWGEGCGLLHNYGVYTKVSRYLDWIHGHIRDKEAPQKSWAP
# assay_name: Binding affinity against activated protein C (APC)
Decide using Ki alone. Strictly below 5 µM: Met. Equal to or above 5 µM: Not met.

Take a look at these entries with their results.
> print(dat)
                                        mol  assigned.class
1  N=C(N)c1cccc(CN2CC[C@H](NS(=O)(=O)c3cc4nc(Cl)ccc4s3)C2=O)c1         Not met
2  N=C(N)c1ccc(O)c(CN2CC[C@H](NS(=O)(=O)c3cc4c(Cl)nccc4s3)C2=O)c1         Not met
3  COc1ccc2ccc(S(=O)(=O)N[C@H]3CCN(Cc4cc(C(=N)N)ccc4O)C3=O)cc2c1             Met
4  N=C(N)c1ccc(O)c(CN2CC[C@H](NS(=O)(=O)c3cc4cnccc4s3)C2=O)c1         Not met

Bench note: check whether COc1ccc2sc(S(=O)(=O)N[C@H]3CCN(Cc4cc(C(=N)N)ccc4N)C3=O)cc2n1 shows Ki below 5 µM Not met

// query: N=C(N)c1ccc(O)c(CN2CC[C@H](NS(=O)(=O)c3cc4nc(Cl)ccc4s3)C2=O)c1 Not met

Likewise for N=C(N)c1ccc(O)c(CN2CC[C@H](NS(=O)(=O)c3cc4ccncc4s3)C2=O)c1 ? Not met

What do you have for N=C(N)c1ccc(O)c(CN2CC[C@H](NS(=O)(=O)c3cc4ccnc(Cl)c4s3)C2=O)c1 ? Not met

One more compound: N=C(N)c1ccc(N)c(CN2CC[C@H](NS(=O)(=O)c3cc4nc(Cl)ccc4s3)C2=O)c1 Met

Follow-up item: N=C(N)c1cccc(CN2CC[C@H](NS(=O)(=O)c3cc4ncccc4s3)C2=O)c1 Not met

Moving on to the next compound: N=C(N)c1ccc(O)c(CN2CC[C@H](NS(=O)(=O)c3cc4ncccc4s3)C2=O)c1 Not met
